Data credit: ChEMBL document CHEMBL5441456

# target system: Replicase polyprotein 1ab (Severe acute respiratory syndrome coronavirus 2, UniProt P0DTD1)
# protocol text: Functional biochemical assay to identify treatments for viral infectious disease that targets SARS-COV-2 nsp3 macrodomain, whereby the mechanism of action displaces an ADP-Ribose modified peptide from the binding site. Utilizing a time-resolved fluorescence method to measure binding by reading the emitted fluorescence intensity in two wavelengths.
pIC50: −log10 of the molar value.

| molecule | pIC50 |
| --- | --- |
| CC(C)[C@H](Nc1ccnc2[nH]ccc12)c1ccc2c(c1)S(=O)(=O)CCC2 | < 4.00 |
| O=C(Nc1cccc2c(C(=O)N[C@@H](CO)c3ccc4c(c3)OCCO4)c[nH]c12)NC1CC1 | < 4.00 |
| Cc1cc(CNC(=O)c2cc3c(N[C@@H](c4ccc5c(c4)OCCO5)C(C)C)ncnc3[nH]2)[nH]n1 | 5.92 |
| C[C@@H](Nc1ncnc2[nH]ccc12)[C@@H]1CCCCO1 | < 4.00 |
| FC(F)(F)CO[C@@H]1CCCN(c2ncnc3[nH]ccc23)C1 | < 3.91 |
| O=C(NCSC[C@@H](NC(=O)c1ncnc2[nH]ccc12)C(=O)O)c1ccccc1 | < 4.00 |
| CC(C)[C@H]1N(c2ncnc3[nH]ccc23)CC12CCOCC2 | < 4.00 |
| Cc1nn(CC(C)C)c(Cl)c1[C@@H]1CCCN1c1ncnc2[nH]ccc12 | < 4.00 |
| CC(C)[C@@H]1C[C@H](Nc2[nH]cnc3nccc2-3)CCO1 | < 4.00 |
| CC(C)[C@H](Nc1cc(-n2cncn2)ncn1)c1ccc2c(c1)S(=O)(=O)CCC2 | < 4.00 |
| CC(C)[C@H](Nc1ncnc2[nH]c(-c3cnn(C)c3C#N)cc12)c1ccc2c(c1)NC(=O)CO2 | 6.75 |
| CC(C)[C@@H](CCN(C)C(=O)c1nn(C)c2ccc(F)cc12)Nc1ncnc2[nH]ccc12 | < 4.00 |
| COCc1noc(C)c1-c1cc2c(N[C@@H](c3ccc4c(c3)OCCO4)C(C)C)ncnc2[nH]1 | < 4.00 |
| CCNC(=O)c1cc2c(N[C@H](c3cnc(C(=O)N(C)C)nc3)C(C)C)ncnc2[nH]1 | 4.32 |
| CC(C)[C@@H](Nc1ccnc2nccn12)c1ccc2c(c1)S(=O)(=O)CCC2 | < 4.00 |
| CC(C)[C@@H](Nc1nc(C(F)F)nc2ccccc12)c1ccc2c(c1)OCCO2 | < 4.00 |
| Cc1cccc(Cl)c1-n1sc(=O)n(CC2CC2)c1=O | 4.64 |
| Cc1[nH]c2ncnc(NC(=O)c3cncnc3)c2c1C | < 4.00 |
| CNS(=O)(=O)c1cc2c(N[C@@H](c3ccc4c(c3)S(=O)(=O)CCC4)C(C)C)ncnc2[nH]1 | 5.93 |
| COc1ccc([C@@H](Nc2ncnc3[nH]ccc23)C(C)C)cc1OC | < 4.00 |
| Cc1ncnc2c1C[C@@H](C(=O)N(C)CC[C@@H](Nc1ncnc3[nH]ccc13)C(C)C)CC2 | < 4.00 |
| CCOC(=O)C1=C(Nc2cc(C)cc(C)c2)OCC1=O | < 4.00 |
| CN(C)C(=O)c1cccc(S(=O)(=O)Nc2cnc3[nH]ccc3c2)c1 | < 4.00 |
| N#Cc1ccc(C(=O)Nc2ccc(C(=O)N[C@@H]3c4ccccc4C[C@@H]3C(=O)O)cc2)cc1 | < 4.00 |
| CC(C)[C@H](Nc1ncnc(O)c1Cl)c1ccc2c(c1)S(=O)(=O)CCC2 | < 4.00 |
| CS(=O)(=O)NC1CCC(Nc2ccc([C@@H](CC(=O)O)NC(=O)c3c[nH]c4ncncc34)cc2)CC1 (some centres undefined) | < 4.00 |
| Cn1ncc2c(N[C@@H](c3ccc4c(c3)OCCO4)C3CC3)ncnc21 | < 4.00 |
| Cc1nc(C)c(CC(=O)Nc2cnc3[nH]ncc3c2)c(=O)[nH]1 | < 4.00 |
| CC(C)[C@@H](Nc1ncnc2[nH]c(C(=O)NC3CN(C)C3)cc12)c1ccc2c(c1)S(=O)(=O)CCC2 | 6.72 |
| Brc1ccc(-n2nnnc2Sc2ncnc3[nH]ccc23)cc1 | < 3.91 |
| CC(C)[C@@H](c1ccc2c(c1)OCCO2)N(C)c1ncnc2[nH]c(-c3cnn(CC(N)=O)c3)cc12 | 4.70 |
| Cc1nc2nc[nH]c(NC(=O)c3ccc(NC(=O)NC4CC4)nc3)c-2c1C | < 4.00 |
| CC(C)[C@H](Nc1ncncc1-n1ccnn1)c1ccc2c(c1)S(=O)(=O)CCC2 | < 4.00 |
| C=CCn1c(Sc2ncnc3[nH]ccc23)nc2sccc2c1=O | < 4.00 |
| Cn1c(C(=O)O)c(NC(=O)c2ccc(NC(=O)NC3CC3)cc2)c2cccnc21 | < 4.00 |
| CC(C)[C@H](NC(=O)c1ncnc2[nH]ccc12)c1ccc2c(c1)S(=O)(=O)CCC2 | < 4.00 |
| CC(C)[C@@H](Nc1ncnc2[nH]c(-c3cccc(CN4CCCS4(=O)=O)c3)cc12)c1ccc2c(c1)OCCO2 | < 4.00 |
| O=C(Nc1ccc(C(=O)Nc2c(C(=O)O)sc3cnccc23)cc1)NC1CC1 | < 4.00 |
| O=C(Nc1cccc2c(C(=O)Nc3cc4c(cc3C(=O)O)OCCO4)c[nH]c12)NC1CC1 | < 4.00 |

---

# target system: Replicase polyprotein 1ab (Severe acute respiratory syndrome coronavirus 2)
# protocol text: Functional biochemical assay to identify treatments for viral infectious disease that targets SARS-COV-2 nsp3 macrodomain, whereby the mechanism of action displaces an ADP-Ribose modified peptide from the binding site. Utilizing a time-resolved fluorescence method to measure binding by reading the emitted fluorescence intensity in two wavelengths.
Here, each record is paired with measured IC50 data.
property: IC50

| mol | target system | result |
| --- | --- | --- |
| CC(C)[C@@H](Nc1cc(N2CCC[C@H]2C(=O)O)ncn1)c1ccc2c(c1)S(=O)(=O)CCC2 | Replicase polyprotein 1ab (Severe acute respiratory syndrome coronavirus 2) | > 99.5 µM |
| Cc1csc(NC(=O)CSC[C@@H](NC(=O)c2ncnc3[nH]ccc23)C(=O)O)n1 | Replicase polyprotein 1ab (Severe acute respiratory syndrome coronavirus 2) | > 99.5 µM |
| CCNC(=O)c1cc2c(N[C@H](c3ccc4c(n3)S(=O)(=O)CCO4)C(C)C)ncnc2[nH]1 | Replicase polyprotein 1ab (Severe acute respiratory syndrome coronavirus 2) | 0.11 µM |

---

# target system: Replicase polyprotein 1ab (Severe acute respiratory syndrome coronavirus 2)
# protocol text: Functional biochemical assay to identify treatments for viral infectious disease that targets SARS-COV-2 nsp3 macrodomain, whereby the mechanism of action displaces an ADP-Ribose modified peptide from the binding site. Utilizing a time-resolved fluorescence method to measure binding by reading the emitted fluorescence intensity in two wavelengths.

| mol | IC50 |
| --- | --- |
| CC(=O)c1ccc(S(=O)(=O)Nc2cnc3[nH]ccc3c2)cc1 | > 99.5 µM |
| N#CCc1cccc(S(=O)(=O)Nc2cnc3[nH]ccc3c2)c1 | > 99.5 µM |
| CC(C)[C@@H](Nc1ncnc2[nH]ccc12)C(F)F | 15.2 µM |
| CC(=O)N1[C@@H]2CC[C@H]1c1c(ncnc1N[C@@H](c1ccc3c(c1)S(=O)(=O)CCC3)C(C)C)C2 | > 99.5 µM |
| COc1ncnc(N[C@H](c2ccc3c(c2)S(=O)(=O)CCC3)C(C)C)c1F | > 99.5 µM |

---

# target system: Replicase polyprotein 1ab (Severe acute respiratory syndrome coronavirus 2, UniProt P0DTD1)
# protocol text: Functional biochemical assay to identify treatments for viral infectious disease that targets SARS-COV-2 nsp3 macrodomain, whereby the mechanism of action displaces an ADP-Ribose modified peptide from the binding site. Utilizing a time-resolved fluorescence method to measure binding by reading the emitted fluorescence intensity in two wavelengths.
pIC50: −log10 of the molar value.
Each entry below carries its reported pIC50.
property: pIC50

| mol | result |
| --- | --- |
| Cc1coc(-c2cc3c(N[C@@H](c4ccc5c(c4)OCCO5)C(C)C)ncnc3[nH]2)c1 | < 4.00 |
| CCc1cnn(C)c1NC(=O)c1ncnc2[nH]ccc12 | < 4.00 |
| CC(C)[C@@H](Nc1ncnc2[nH]ccc12)C(N)=O | 4.51 |
| O=C(Nc1ccc(C(=O)Nc2c(C(=O)O)sc3ncccc23)cc1)NC1CC1 | < 4.00 |
| Cc1[nH]c2ncnc(NC(=O)c3ccc(C#N)nc3)c2c1C | < 4.00 |
| CC(C)OCCNC(=O)c1cc2c(=O)n3ccccc3nc2n1C | < 3.91 |
| COc1ccc(C(=O)Nc2ccc(C(=O)N[C@@H]3c4ccccc4C[C@@H]3C(=O)O)cc2)cc1S(=O)(=O)NCCN1CCCC1 | < 4.00 |
| OC[C@@H](Nc1ncnc2[nH]c(I)cc12)c1ccccc1 | < 3.91 |
| COc1ccccc1C[C@@H](Nc1ncnc2[nH]ccc12)C(C)C | 4.01 |
| O=C(c1ncc[nH]1)N1CCC(c2ccn3ncc(C(=O)N4CCCCC4)c3c2)CC1 | < 4.00 |
| Cc1[nH]c2ncnc(NC(=O)Cc3ccc(Cl)nc3)c2c1C | < 4.00 |
| CO[C@@H]1CCCN(C(=O)c2cnn3ccc(C4CCN(C(=O)c5ccccc5)CC4)cc23)C1 | < 4.00 |
